system: Fibroblast; assay: Multiplex assay against human fibroblast; type: toxicity, cell-based; conditions: 12 h, 1 µM, compound concentration 1 uM, replicate 1

# COMPOUND, UNIT OF MEASUREMENT, Population Pyknosed Nuclei (%)
rows = [
    ("Cc1ccc2c(c1)c1c(n2CCc2ccc(C)nc2)CCN(C)C1 [LATREPIRDINE]", "%", 18),
    ("Cc1ccccc1C(c1ccccc1C)N1C2CCC1CC(O)(c1ccccc1)C2 (stereo not drawn)", "%", 44),
    ("CNC(=O)c1ccc(Nc2ncc(C(F)(F)F)c(NCc3nccnc3N(C)S(C)(=O)=O)n2)cc1", "%", 17),
    ("C[C@]12CC[C@@H]3c4ccc(O)cc4CC[C@H]3[C@@H]1CC[C@@H]2O", "%", 18),
    ("CC(C)(C)NC[C@H](O)COc1nsnc1N1CCOCC1", "%", 25),
    ("CN1CCN(Cc2ccc(Nc3ncc(Cl)c(Nc4ccccc4S(=O)(=O)N(C)C)n3)cc2)CC1", "%", 21),
    ("CC(C)OC(=O)N1CCC(Oc2ncnc3c2cnn3-c2ccc(S(C)(=O)=O)cc2F)CC1", "%", 22),
    ("COC(=O)C1=C(C)NC(C)=C(C(=O)OCCCN2CCC(c3ccccc3)(c3ccccc3)CC2)[C@H]1c1cccc([N+](=O)[O-])c1", "%", 36),
]

----------
system: U2OS; experiment: Multiplex assay against U2OS; type: toxicity, cell-based; conditions: human, 24 h, 10 µM, compound concentration 10 uM, replicate 2
ASSAY METRIC: Population Mitochondria Different-Phenotype (%)

# COMPOUND, RESULT
records = [
    ("COc1ccc(-c2ccc3ncc4c(c3c2)n(-c2ccc(N3CCNCC3)c(C(F)(F)F)c2)c(=O)n4C)cn1.O=C(O)/C=C\\C(=O)O [BGT-226]", 60),
    ("CC(C)c1noc(N2CCC(COc3ccc(-c4ccc(S(C)(=O)=O)cc4)nc3)CC2)n1 [GSK-1292263]", 12),
    ("Cc1cccc(CN2CCN(C(c3ccccc3)c3ccc(Cl)cc3)CC2)c1.Cl.Cl (stereo unspecified)", 63),
    ("CN1CCN(Cc2ccc(Nc3ncc(Cl)c(Nc4ccccc4S(=O)(=O)N(C)C)n3)cc2)CC1 [DUBERMATINIB]", 55),
    ("Cc1ccc2c(c1)c1c(n2CCc2ccc(C)nc2)CCN(C)C1 [LATREPIRDINE]", 100),
    ("CC(C)NC(=O)N1CC[C@H](NC2=Nc3cc(F)ccc3N(CC(F)F)c3ccc(Cl)cc32)C1", 57),
    ("COc1ccccc1CN[C@H]1C2CCN(CC2)[C@H]1C(c1ccccc1)c1ccccc1 [CP-96345]", 31),
    ("C=CC(=O)Nc1ccc2[nH]c(=O)n(C3CCN(Cc4ccc(-c5nc6cc[nH]c(=O)c6cc5-c5ccccc5)cc4)CC3)c2c1 [Borussertib]", 28),
    ("O=c1[nH]c2ccccc2n1C1CCN(Cc2ccc(-c3[nH]c4cc5ncnc5cc4nc3-c3ccccc3)cc2)CC1", 88),
    ("COc1cc(Nc2nccc(-c3cnn4nc(OC)ccc34)n2)cc(C(F)(F)F)c1", 23),
    ("C[C@]12CC[C@@H]3c4ccc(O)cc4CC[C@H]3[C@@H]1CC[C@@H]2O [ESTRADIOL]", 11),
]

----------
tested on: U2OS; test: Multiplex assay against U2OS; assay type: toxicity, cell-based; details: human, 24 h, 10 µM, compound concentration 10 uM, replicate 2
Kindly note that classification relies on Population Fragmented Nuclei (%) with these boundaries: low value = under 8%, medium value = from 8% up to 20%, high value = 20% and over

# COMPOUND, TARGET SYSTEM, GROUP
data = [
    ("COc1cc2ncn(-c3cc(OCc4ccccc4C(F)(F)F)c(C(N)=O)s3)c2cc1OC [GW843682X]", "U2OS", "medium value"),
    ("C[C@]12CC[C@@H]3c4ccc(O)cc4CC[C@H]3[C@@H]1CC[C@@H]2O [ESTRADIOL]", "U2OS", "medium value"),
    ("CNC(=O)Nc1ccc2c(c1)[C@@]1(CC2)OC(=O)N(CC(=O)N(Cc2ccc(F)cc2)[C@@H](C)C(F)(F)F)C1=O [A-486]", "U2OS", "low value"),
    ("CC(C)CC(=O)Nc1[nH]nc2c1CN(C(=O)C1CCN(C)CC1)C2(C)C [PHA-793887]", "U2OS", "medium value"),
    ("COc1ccccc1CN[C@H]1C2CCN(CC2)[C@H]1C(c1ccccc1)c1ccccc1 [CP-96345]", "U2OS", "low value"),
    ("Cc1nc(N2CC[C@H](O)C2)ncc1-c1cc(C(F)(F)F)cc2[nH]ncc12", "U2OS", "low value"),
    ("O=c1[nH]c2ccccc2n1C1CCN(Cc2ccc(-c3[nH]c4cc5ncnc5cc4nc3-c3ccccc3)cc2)CC1", "U2OS", "high value"),
    ("Cl.O=C(O)c1cc(-c2ccc(C3CCNCC3)cc2)c2ccc(-c3ccc(C(F)(F)F)cc3)cc2c1", "U2OS", "medium value"),
    ("COc1ccc(-c2ccc3ncc4c(c3c2)n(-c2ccc(N3CCNCC3)c(C(F)(F)F)c2)c(=O)n4C)cn1.O=C(O)/C=C\\C(=O)O [BGT-226]", "U2OS", "high value"),
    ("C=CC(=O)Nc1cccc(Oc2nc(Nc3ccc(N4CCN(C)CC4)cc3OC)ncc2Cl)c1", "U2OS", "medium value"),
    ("CCc1nn(CCCN2CCN(c3cccc(Cl)c3)CC2)c(=O)n1CCOc1ccccc1.Cl [NEFAZODONE HYDROCHLORIDE]", "U2OS", "high value"),
    ("Cc1ccc2c(c1)c1c(n2CCc2ccc(C)nc2)CCN(C)C1 [LATREPIRDINE]", "U2OS", "low value"),
    ("CC(C)Oc1ccccc1C(=O)Nc1ccccc1C(=O)Nc1cccc(S(=O)(=O)C(F)(F)F)c1", "U2OS", "medium value"),
    ("CN1CCN(Cc2ccc(Nc3ncc(Cl)c(Nc4ccccc4S(=O)(=O)N(C)C)n3)cc2)CC1 [DUBERMATINIB]", "U2OS", "high value"),
    ("CCCSc1nc(N[C@@H]2C[C@H]2c2ccc(F)c(F)c2)c2nnn([C@@H]3C[C@H](OCCO)[C@@H](O)[C@H]3O)c2n1 [TICAGRELOR]", "U2OS", "low value"),
]

----------
test system: Fibroblast; assay: Multiplex assay against human fibroblast; format: toxicity, cell-based; conditions: 12 h, 10 µM, compound concentration 10 uM, replicate 1
The following compounds are listed with their measured Population Apoptotic (%) values.
ASSAY METRIC: Population Apoptotic (%)

# COMPOUND, ASSAY METRIC, RESULT
records = [
    ("Cc1cccc(CN2CCN(C(c3ccccc3)c3ccc(Cl)cc3)CC2)c1.Cl.Cl (configuration not stated)", "Population Apoptotic (%)", "61%"),
    ("CC(C)(C)NC[C@H](O)COc1nsnc1N1CCOCC1", "Population Apoptotic (%)", "60%"),
    ("COC(=O)C1=C(C)NC(C)=C(C(=O)OCCCN2CCC(c3ccccc3)(c3ccccc3)CC2)[C@H]1c1cccc([N+](=O)[O-])c1", "Population Apoptotic (%)", "65%"),
    ("C[C@]12CC[C@@H]3c4ccc(O)cc4CC[C@H]3[C@@H]1CC[C@@H]2O", "Population Apoptotic (%)", "75%"),
    ("CC1=C(C(=O)Nc2cc3cn[nH]c3cc2F)C(c2ccc(C(F)(F)F)cc2)CC(=O)N1 (configuration not stated)", "Population Apoptotic (%)", "55%"),
    ("Cl.O=C(O)c1cc(-c2ccc(C3CCNCC3)cc2)c2ccc(-c3ccc(C(F)(F)F)cc3)cc2c1", "Population Apoptotic (%)", "62%"),
    ("CNC(=O)Nc1ccc(-c2nc(N3CC4CCC(C3)O4)c3cnn(C4CCC5(CC4)OCCO5)c3n2)cc1", "Population Apoptotic (%)", "50%"),
    ("CC(C)CC(=O)Nc1[nH]nc2c1CN(C(=O)C1CCN(C)CC1)C2(C)C", "Population Apoptotic (%)", "73%"),
    ("C=CC(=O)Nc1cccc(Oc2nc(Nc3ccc(N4CCN(C)CC4)cc3OC)ncc2Cl)c1", "Population Apoptotic (%)", "62%"),
    ("CCc1nn(CCCN2CCN(c3cccc(Cl)c3)CC2)c(=O)n1CCOc1ccccc1.Cl [NEFAZODONE HYDROCHLORIDE]", "Population Apoptotic (%)", "81%"),
    ("CC(C)OC(=O)N1CCC(Oc2ncnc3c2cnn3-c2ccc(S(C)(=O)=O)cc2F)CC1", "Population Apoptotic (%)", "58%"),
    ("CNC(=O)Nc1ccc2c(c1)[C@@]1(CC2)OC(=O)N(CC(=O)N(Cc2ccc(F)cc2)[C@@H](C)C(F)(F)F)C1=O", "Population Apoptotic (%)", "55%"),
    ("Cc1ccc(C)c(Oc2ccncc2C(=O)N2CCN(C3CC3)c3ccccc32)c1", "Population Apoptotic (%)", "59%"),
    ("COc1ccccc1CN[C@H]1C2CCN(CC2)[C@H]1C(c1ccccc1)c1ccccc1", "Population Apoptotic (%)", "67%"),
    ("CN1CCN(Cc2ccc(Nc3ncc(Cl)c(Nc4ccccc4S(=O)(=O)N(C)C)n3)cc2)CC1", "Population Apoptotic (%)", "72%"),
    ("C=CC(=O)Nc1cccc(Sc2nc(Nc3ccc(N4CCN(C)CC4)cc3)ncc2Cl)c1", "Population Apoptotic (%)", "79%"),
    ("CCCSc1nc(N[C@@H]2C[C@H]2c2ccc(F)c(F)c2)c2nnn([C@@H]3C[C@H](OCCO)[C@@H](O)[C@H]3O)c2n1", "Population Apoptotic (%)", "56%"),
]

Attribution: ChEMBL document CHEMBL4689842
